# assayed_system: human α-thrombin (Homo sapiens, UniProt P00734)
# protocol_details: Sub-library screen for active and permeable cyclic peptides (PAMPA plus thrombin inhibition)
# Type: biochemical
# recorded_conditions: PAMPA acceptor well after 14 h, 5 μM donor; crude; slopes normalized to DMSO
experimental_endpoint: Residual thrombin activity: Top sample
Number only, please.

# example entries with known answers
                                  structure                            assayed_system  quantitative_readout
0  O=C1C[C@H]2CCCN2C(=O)[C@H](Cc2ccccc2)NC(=O)[C@@H](NC(=O)c2ccc(Cl)s2)CSC/C=C/CSCCN1  human α-thrombin (Homo sapiens, UniProt P00734)                  53.7
1  Cc1cccc(C[C@@H]2NC(=O)[C@@H](NC(=O)c3ccc(Cl)s3)CSCCS(=O)(=O)CCSCCNC(=O)C[C@H]3CCCN3C2=O)c1  human α-thrombin (Homo sapiens, UniProt P00734)                  93.0

Would you kindly look at the next entry?
stdin: Quick one: Residual thrombin activity: Top sample for O=C1C[C@H]2CCCN2C(=O)[C@@H](Cc2ccccc2)NC(=O)[C@@H](NC(=O)c2ccc(Cl)s2)CSCc2ccc(cc2)CSCCN1 ?
stdout: 95.4

====

# assayed_system: UniProt:P00734
# protocol_details: Protease inhibition, Ki for human α-thrombin (fluorogenic substrate Z-Gly-Gly-Arg-AMC)
# Type: biochemical
# recorded_conditions: human alpha thrombin; average of R1-R3; read-out: Ki Average
experimental_endpoint: Ki (nM)
Reply numerically in nM, unit not repeated.

>>> df
                                   compound  assayed_system  quantitative_readout
0  O=C1C[C@H]2CCCN2C(=O)[C@H](Cc2ccccc2)NC(=O)[C@@H](NC(=O)c2ccc(Cl)s2)CSCCS(=O)(=O)CCSCCN1 [peptide 11]  UniProt:P00734                  85.8

stdin: Quick one: Ki for CN1CCC(=O)NCCSCCS(=O)(=O)CCSC[C@H](NC(=O)c2ccc(Cl)s2)C(=O)N[C@@H](Cc2ccccc2)C1=O ?
stdout: 790

====

# protocol_details: in vivo
# recorded_conditions: male, Wistar Han, rat
Square brackets hold non-standard residues; d marks the D form. Peptide text beside a SMILES is read from it. NMeY = CN[C@@H](Cc1ccc(O)cc1)C(=O)O; NMeL = CN[C@@H](CC(C)C)C(=O)O; dNMeL = CN[C@H](CC(C)C)C(=O)O
experimental_endpoint: bioavailability (%)
Reply numerically in %, unit not repeated.

stdin: Quick one: bioavailability for CC(C)C[C@@H]1NC(=O)[C@H](Cc2ccc(O)cc2)N(C)C(=O)[C@H]2CCCN2C(=O)[C@H](CC(C)C)NC(=O)[C@H](CC(C)C)N(C)C(=O)[C@@H](CC(C)C)N(C)C1=O [1NMe3, reference compound] (cyclo(L[dNMeL][NMeL]L[dP][NMeY])) ?
stdout: 27

====

# assayed_system: human α-thrombin (Homo sapiens)
# protocol_details: Sub-library screen for active and permeable cyclic peptides (PAMPA plus thrombin inhibition)
# Type: biochemical
# recorded_conditions: donor sample diluted to theoretical equilibrium (1 μM in assay); crude; slopes normalized to DMSO
experimental_endpoint: Residual thrombin activity: Equilibrated sample
Number only, please.

                                   molecule                   assayed_system  quantitative_readout
0  O=C1CSCCNC(=O)C[C@H]2CCCN2C(=O)[C@H](Cc2ccc(C(F)(F)F)cc2)NC(=O)[C@@H](NC(=O)c2ccc(Cl)s2)CCSC1 [C2-X36-L7]  human α-thrombin (Homo sapiens)                 104.5

stdin: Quick one: Residual thrombin activity: Equilibrated sample for O=C1C[C@H]2CCCN2C(=O)[C@@H](Cc2ccccc2)NC(=O)[C@@H](NC(=O)c2ccc(Cl)s2)CCSCc2cccc(c2)CSCCN1 [C2-X31-L5] ?
stdout: 96.6

stdin: Param item: O=C1C[C@H]2CCCN2C(=O)[C@H](Cc2ccc(Cl)cc2)NC(=O)[C@@H](NC(=O)c2ccc(Cl)s2)CCSCc2ccc(cc2)CSCCN1 [C2-X34-L3]
stdout: 99.1

====

TIC value of compound, 60 min, R1 reference
# protocol_details: Metabolic stability in rat liver microsomes (RLMs)
# recorded_conditions: rat liver microsomes, 60 min, replicate R1
Number only, please.

# example entries with known answers
>>> df
                                   molecule              experimental_endpoint  quantitative_readout
0  O=C1C[C@H]2CCCN2C(=O)[C@H](Cc2ccccc2)NC(=O)[C@@H](NC(=O)c2ccc(Cl)s2)CSCc2cccc(n2)CSCCN1  TIC value of compound, 60 min, R1               4587256
1  O=C1C[C@H]2CCCN2C(=O)[C@H](Cc2ccccc2)NC(=O)[C@@H](NC(=O)c2ccc(Cl)s2)CSC/C=C/CSCCN1 [peptide 32]  TIC value of compound, 60 min, R1                     0
2  O=C1C[C@H]2CCCN2C(=O)[C@H](Cc2ccccc2)NC(=O)[C@@H](NC(=O)c2ccc(Cl)s2)CCCSC/C=C/CSCCN1  TIC value of compound, 60 min, R1                607530
3  O=C1CSCCC[C@H](NC(=O)c2ccc(Cl)s2)C(=O)N[C@@H](Cc2ccccc2)C(=O)N2CCC[C@@H]2CC(=O)NCCSC1  TIC value of compound, 60 min, R1                631769
4  O=C1C[C@H]2CCCN2C(=O)[C@H](Cc2ccccc2)NC(=O)[C@@H](NC(=O)c2ccc(Cl)s2)CCSC/C=C/CSCCN1  TIC value of compound, 60 min, R1               1228797

stdin: Quick one: TIC value of compound, 60 min, R1 for O=C1C[C@H]2CCCN2C(=O)[C@H](Cc2ccccc2)NC(=O)[C@@H](NC(=O)c2ccc(Cl)s2)CCSCc2cccc(n2)CSCCN1 ?
stdout: 4659151

stdin: Param item: O=C1C[C@H]2CCCN2C(=O)[C@H](Cc2ccccc2)NC(=O)[C@@H](NC(=O)c2ccc(Cl)s2)CCCSCc2cccc(n2)CSCCN1
stdout: 1618321

====

# protocol_details: Passive artificial membrane permeability (PAMPA);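 further: top well sample relative to theoretical equilibrium sample by TIC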
# recorded_conditions: 50 μM, 13 h (Fig. 5d)
experimental_endpoint: Permeability% Average (%)
Reply numerically in %, unit not repeated.

# example entries with known answers
>>> df
                                   compound  experimental_endpoint  quantitative_readout
0  O=C1C[C@H]2CCCN2C(=O)[C@H](Cc2ccccc2)NC(=O)[C@@H](NC(=O)c2ccc(Cl)s2)CCC=CCCCCN1 [peptide 43]  Permeability% Average                  66.0
1  O=C1C[C@H]2CCCN2C(=O)[C@H](Cc2ccccc2)NC(=O)[C@@H](NC(=O)c2ccc(Cl)s2)CCC=CCCCN1 [compound 41]  Permeability% Average                  64.4
2  CC(C)NCC(O)COc1cccc2ccccc12 (centres unmarked) [Propranolol, reference compound]  Permeability% Average                  91.0
3  O=C1C[C@H]2CCCN2C(=O)[C@H](Cc2ccccc2)NC(=O)[C@@H](NC(=O)c2ccc(Cl)s2)CCCC=CCCCN1 [compound 42]  Permeability% Average                  70.2
4  O=C1C[C@H]2CCCN2C(=O)[C@H](Cc2ccccc2)NC(=O)[C@@H](NC(=O)c2ccc(Cl)s2)CC=CCCN1 [compound 38]  Permeability% Average                  31.8
5  O=C1C[C@H]2CCCN2C(=O)[C@H](Cc2ccccc2)NC(=O)[C@@H](NC(=O)c2ccc(Cl)s2)CC=CCCCN1 [compound 40]  Permeability% Average                  42.3
6  O=C1C[C@H]2CCCN2C(=O)[C@H](Cc2ccccc2)NC(=O)[C@@H](NC(=O)c2ccc(Cl)s2)CCC=CCCN1 [compound 39]  Permeability% Average                  69.9

Would you kindly look at the next entry?
stdin: Quick one: Permeability% Average for O=C1C[C@H]2CCCN2C(=O)[C@H](Cc2ccccc2)NC(=O)[C@@H](NC(=O)c2ccc(Cl)s2)CCCC=CCCCCN1 [compound 44] ?
stdout: 47.6

====

# protocol_details: Metabolic stability in rat liver microsomes (RLMs)
# recorded_conditions: rat, microsomes, RLM CL, Average, average of R1-R3
I would appreciate it if you labelled entries yes when microsomal CLint is 70 µL/min/mg or higher, otherwise no.

Some solved entries appear below for comparison.
In [3]: df
Out[3]:
                                   compound  category_label
0  O=C1C[C@H]2CCCN2C(=O)[C@H](Cc2ccccc2)NC(=O)[C@@H](NC(=O)c2ccc(Cl)s2)CSC/C=C/CSCCN1 [peptide 32]             yes
1  O=C1C[C@H]2CCCN2C(=O)[C@H](Cc2ccccc2)NC(=O)[C@@H](NC(=O)c2ccc(Cl)s2)CCCSC/C=C/CSCCN1              no
2  O=C1C[C@H]2CCCN2C(=O)[C@H](Cc2ccccc2)NC(=O)[C@@H](NC(=O)c2ccc(Cl)s2)CCCSCc2cccc(n2)CSCCN1             yes
3  O=C1C[C@H]2CCCN2C(=O)[C@H](Cc2ccccc2)NC(=O)[C@@H](NC(=O)c2ccc(Cl)s2)CCSCc2cccc(n2)CSCCN1              no

stdin: // inclusive: microsomal CLint at least 70 µL/min/mg? input: O=C1C[C@H]2CCCN2C(=O)[C@H](Cc2ccccc2)NC(=O)[C@@H](NC(=O)c2ccc(Cl)s2)CSCc2cccc(n2)CSCCN1
stdout: no

stdin: Param item: O=C1C[C@H]2CCCN2C(=O)[C@H](Cc2ccccc2)NC(=O)[C@@H](NC(=O)c2ccc(Cl)s2)CCSC/C=C/CSCCN1
stdout: yes

stdin: Param item: O=C1CSCCC[C@H](NC(=O)c2ccc(Cl)s2)C(=O)N[C@@H](Cc2ccccc2)C(=O)N2CCC[C@@H]2CC(=O)NCCSC1
stdout: yes
